System: STEME
Experiment: Post-emergence herbicidal action against STEME
Type: in vivo, Stellaria media
Conditions: application rate 80 g/ha, rated visually about 3 weeks after treatment
Consider the following molecules and their measured Herbicidal action against [%] STEME readings.
property.name: Herbicidal action against [%] STEME

>>> experimental_value("CC1(C(=O)N[C@H]2C=C[C@@H](C(=O)OCc3ccccc3)C2)CC(c2cc(F)cc(F)c2)=NO1 (stereo partly shown) [Example I-008]")
"90%"
>>> experimental_value("CCOC(=O)C1C=CC(NC(=O)C2(C)CC(c3cc(F)cc(C#N)c3)=NO2)C1 (mixture of isomers) [Example I-073]")
"90%"
>>> experimental_value("CCOC(=O)C1C=CC(NC(=O)C2(C)CC(c3cc(F)cc(F)c3)=NO2)C1 (mixture of isomers) [Example I-059]")
"90%"
>>> experimental_value("Cc1cc(Cl)cc(C2=NOC(C(=O)N[C@H]3C=C[C@@H](C(=O)OCCCl)C3)(C(F)(F)F)C2)c1 (stereo partly shown) [Example I-028]")
"80%"
>>> experimental_value("COC(=O)C1C=CC(NC(=O)C2(C(F)(F)F)CC(c3cc(C)cc(C)c3)=NO2)C1 (mixture of isomers) [Example I-055]")
"90%"
>>> experimental_value("CCOC(=O)C1C=CC(NC(=O)C2(C#N)CC(c3cc(F)cc(F)c3)=NO2)C1 (stereo not shown) [Example I-104]")
"80%"
>>> experimental_value("CC1(C(=O)NC2C=CC(C(=O)OCCCl)C2)CC(c2cccc(C#N)c2)=NO1 (mixture of isomers) [Example I-079]")
"80%"
>>> experimental_value("C=CC1(C(=O)NC2C=CC(C(=O)OCCCl)C2)CC(c2cc(F)cc(F)c2)=NO1 (mixture of isomers) [Example I-061]")
"90%"
>>> experimental_value("C=C[C@]1(C(=O)N[C@H]2C=C[C@H](C(=O)OC)C2)CC(c2cc(F)cc(F)c2)=NO1 [Example I-054]")
"80%"
>>> experimental_value("CONC(=O)[C@@H]1C=C[C@H](NC(=O)C2(C)CC(c3cc(F)cc(F)c3)=NO2)C1 (stereo partly shown) [II-02]")
"90%"
>>> experimental_value("COC(=O)[C@@H]1C=C[C@H](NC(=O)C2(OC)CC(c3cc(F)cc(F)c3)=NO2)C1 (stereo partly shown) [Example I-019]")
"90%"
>>> experimental_value("COC(=O)C1C=CC(NC(=O)C2(C(F)(F)F)CC(c3cccc(C#N)c3)=NO2)C1 (mixture of isomers) [Example I-087]")
"90%"
>>> experimental_value("O=C(OCC(F)(F)F)C1C=CC(NC(=O)C2(C(F)(F)F)CC(c3cc(F)cc(F)c3)=NO2)C1 (mixture of isomers) [Example I-068]")
"90%"
>>> experimental_value("C=CC1(C(=O)NC2C=CC(C(=O)NC(C)(C)C(=O)OC)C2)CC(c2cc(F)cc(F)c2)=NO1 (stereo not shown) [II-22]")
"80%"
>>> experimental_value("C=CC1(C(=O)N[C@H]2C=C[C@@H](C(=O)OCC(F)F)C2)CC(c2cc(F)cc(F)c2)=NO1 (stereo partly shown) [Example I-016]")
"100%"
>>> experimental_value("COCCOC(=O)C1C=CC(NC(=O)C2(C(F)(F)F)CC(c3cccc(C#N)c3)=NO2)C1 (mixture of isomers) [Example I-086]")
"80%"
>>> experimental_value("CCOC(=O)C1=CC[C@H](NC(=O)C2(C)CC(c3cccc(F)c3)=NO2)C1 (stereo partly shown) [III-06]")
"90%"
>>> experimental_value("CC1(C(=O)N[C@H]2C=C[C@@H](C(=O)OCCCl)C2)CC(c2cc(F)cc(F)c2)=NO1 (stereo partly shown) [Example I-009]")
"90%"
>>> experimental_value("CC1(C(=O)NC2C=CC(C(=O)O)C2)CC(c2cccc(C#N)c2)=NO1 (mixture of isomers) [Example I-070]")
"80%"

###

Test system: ECHCG
Test: Post-emergence herbicidal action against ECHCG
Type: in vivo, Echinochloa crus-galli
Details: application rate 80 g/ha, rated visually after about 3 weeks
Method: [table] 2. Post-emergence herbicidal action against harmful plants and crop plant compatibility Seeds of monocotyledonous and dicotyledonous weeds and crop plants are placed in sandy loam in plastic or wood-fibre pots, covered with soil and cultivated in a greenhouse under controlled growth conditions. 2 to 3 weeks after sowing, the test plants are treated at the one-leaf stage. […]
property.name: Herbicidal action against [%] ECHCG (%)

>>> experimental_value("CCOC(=O)C1C=CC(NC(=O)C2(C#N)CC(c3cc(F)cc(F)c3)=NO2)C1 (stereo not drawn)")
80
>>> experimental_value("C=CC1(C(=O)NC2C=CC(C(=O)O)C2)CC(c2cc(F)cc(F)c2)=NO1 (mixture of isomers) [Example I-037]")
90
>>> experimental_value("C=CC1(C(=O)NC2C=CC(C(=O)OCC)C2)CC(c2cc(F)cc(F)c2)=NO1 (stereo not drawn)")
80
>>> experimental_value("C=CC1(C(=O)NC2C=CC(C(=O)NS(=O)(=O)CC(=O)OC)C2)CC(c2cc(F)cc(F)c2)=NO1 (mixture of isomers)")
80
>>> experimental_value("COC(=O)[C@@H]1C=C[C@H](NC(=O)C2(C(F)(F)F)CC(c3cc(C)cc(F)c3)=NO2)C1 (stereo partly drawn)")
90
>>> experimental_value("CCOC(=O)C1C=CC(NC(=O)C2(C)CC(c3cc(F)cc(F)c3)=NO2)C1 (mixture of isomers)")
100
>>> experimental_value("CC1(C(=O)N[C@H]2C=C[C@@H](C(=O)OCCCl)C2)CC(c2cc(F)cc(F)c2)=NO1 (stereo partly drawn)")
90
>>> experimental_value("COC(=O)C1=CC[C@H](NC(=O)C2(C)CC(c3cccc(F)c3)=NO2)C1 (stereo partly drawn)")
80
>>> experimental_value("O=C(O)C1=C[C@@H](NC(=O)[C@@]2(C(F)(F)F)CC(c3cc(F)cc(F)c3)=NO2)CC1")
80
>>> experimental_value("C=CC1(C(=O)NC2C=CC(C(=O)OC)C2)CC(c2cc(F)cc(F)c2)=NO1 (stereo not drawn) [Example I-012]")
90
>>> experimental_value("C=CC1(C(=O)N[C@H]2CC=C(C(=O)OCC)C2)CC(c2cc(F)cc(F)c2)=NO1 (stereo partly drawn)")
80
>>> experimental_value("COCCOC(=O)[C@@H]1C=C[C@H](NC(=O)[C@@]2(C)CC(c3cc(F)cc(F)c3)=NO2)C1")
80
>>> experimental_value("CCOC(=O)C1=CC[C@H](NC(=O)C2(C)CC(c3cc(F)cc(F)c3)=NO2)C1 (stereo partly drawn)")
90
>>> experimental_value("CCOC(=O)C1C=CC(NC(=O)C2(C(F)(F)F)CC(c3cccc(C#N)c3)=NO2)C1 (mixture of isomers)")
90
>>> experimental_value("CCOC(=O)C1C=CC(NC(=O)C2(C(F)(F)F)CC(c3cc(F)cc(F)c3)=NO2)C1 (mixture of isomers)")
100
>>> experimental_value("COC(=O)C1C=CC(NC(=O)C2(C)CC(c3cccc(C#N)c3)=NO2)C1 (mixture of isomers)")
90
>>> experimental_value("C=CC1(C(=O)NC2C=CC(C(=O)OC)C2)CC(c2cc(F)cc(F)c2)=NO1 (mixture of isomers) [Example I-035]")
90
>>> experimental_value("C=CC1(C(=O)N[C@H]2CC=C(C(=O)OC(C)C)C2)CC(c2cc(F)cc(F)c2)=NO1 (stereo partly drawn)")
90
>>> experimental_value("CC1(C(=O)N[C@H]2C=C[C@@H](C(=O)OCc3ccccc3)C2)CC(c2cc(F)cc(F)c2)=NO1 (stereo partly drawn)")
90
>>> experimental_value("O=C(OCCCl)[C@@H]1C=C[C@H](NC(=O)C2(C(F)(F)F)CC(c3ccccc3)=NO2)C1 (stereo partly drawn)")
80
>>> experimental_value("CCOC(=O)C1C=CC(NC(=O)C2(C(F)(F)F)CC(c3cc(F)cc(C#N)c3)=NO2)C1 (mixture of isomers)")
90
>>> experimental_value("CCCS(=O)(=O)NC(=O)C1C=CC(NC(=O)C2(C(F)(F)F)CC(c3cc(F)cc(F)c3)=NO2)C1 (mixture of isomers)")
80
>>> experimental_value("COC(=O)C(NC(=O)C1C=CC(NC(=O)C2(C)CC(c3cc(F)cc(F)c3)=NO2)C1)C(C)C (mixture of isomers)")
90
>>> experimental_value("O=C(OCC(F)(F)F)[C@@H]1C=C[C@H](NC(=O)C2(C(F)(F)F)CC(c3ccccc3)=NO2)C1 (stereo partly drawn)")
80
>>> experimental_value("COC(=O)C1C=CC(NC(=O)C2(C(F)(F)F)CC(c3cccc(C#N)c3)=NO2)C1 (mixture of isomers)")
80
>>> experimental_value("CC1(C(=O)NC2C=CC(C(=O)N3CCCCO3)C2)CC(c2cc(F)cc(F)c2)=NO1 (mixture of isomers)")
80
>>> experimental_value("Cc1cc(Cl)cc(C2=NOC(C(=O)N[C@H]3C=C[C@@H](C(=O)OCCCl)C3)(C(F)(F)F)C2)c1 (stereo partly drawn)")
80
